molecular target: B-Raf (V600E)-kinase (Homo sapiens (Human), UniProt P15056, V600E); assay: Kinase test B-Raf (V600E); details: 1 h preincubation, 250 μM ATP
Sequence (P15056 whole entry V600E): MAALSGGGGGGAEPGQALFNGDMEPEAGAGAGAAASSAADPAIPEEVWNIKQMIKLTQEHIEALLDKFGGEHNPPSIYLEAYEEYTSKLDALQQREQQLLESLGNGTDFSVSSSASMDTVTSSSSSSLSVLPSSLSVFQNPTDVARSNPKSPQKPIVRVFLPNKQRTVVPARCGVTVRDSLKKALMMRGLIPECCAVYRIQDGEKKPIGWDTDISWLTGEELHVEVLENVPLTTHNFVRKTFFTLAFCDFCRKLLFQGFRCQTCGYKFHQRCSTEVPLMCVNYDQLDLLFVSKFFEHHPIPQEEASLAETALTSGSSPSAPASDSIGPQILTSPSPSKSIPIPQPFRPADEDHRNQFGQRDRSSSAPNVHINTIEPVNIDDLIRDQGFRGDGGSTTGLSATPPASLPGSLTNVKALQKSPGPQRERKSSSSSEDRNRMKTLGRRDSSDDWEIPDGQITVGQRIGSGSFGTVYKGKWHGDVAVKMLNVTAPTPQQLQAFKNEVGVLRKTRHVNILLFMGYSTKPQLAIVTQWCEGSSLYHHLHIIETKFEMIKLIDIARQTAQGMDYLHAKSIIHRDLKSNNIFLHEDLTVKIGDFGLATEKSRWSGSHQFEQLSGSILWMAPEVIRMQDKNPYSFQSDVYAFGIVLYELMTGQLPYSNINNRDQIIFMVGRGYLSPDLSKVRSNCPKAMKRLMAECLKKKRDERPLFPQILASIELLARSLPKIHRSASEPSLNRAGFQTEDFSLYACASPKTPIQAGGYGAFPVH
Class definitions on IC50: lo: < 9 nM; mid: ≥ 9 nM and < 20 nM; hi: ≥ 20 nM

// query Record CNc1cncc(-c2cn(-c3cc(C(=O)Nc4cc(C(C)(C)C)on4)ccc3C)nn2)c1 [I-30] — which class?
// result mid

// query Record Cc1ccc(C(=O)Nc2cc(C(F)(F)F)ccn2)cc1-n1cc(-c2cncc(N(C)C3CCN(C)C3)c2)nn1 (stereo not drawn) [I-78] — which class?
// result lo

// query Record Cc1ccc(C(=O)Nc2cc(C(F)(F)F)ccn2)cc1-n1cc(-c2cncc(N(C)CC3CCCO3)c2)nn1 (stereo not drawn) [I-59] — which class?
// result hi

// query Record Cc1ccc(NC(=O)c2ccc(C(C)(C)C)s2)cc1-n1cc(-c2cncc(N3CCOCC3)c2)nn1 [II-11] — which class?
// result mid

// query Record CCCCN1CCN(c2cncc(-c3cn(-c4cc(C(=O)Nc5cc(C(C)(C)C)on5)ccc4C)nn3)c2)CC1 [I-27] — which class?
// result mid

// query Record C=CCN1CCN(c2cncc(-c3cn(-c4cc(NC(=O)c5ccc(C(C)(C)C)o5)ccc4C)nn3)c2)CC1 [II-18] — which class?
// result lo

// query Record Cc1ccc(C(=O)Nc2cc(C(F)(F)F)ccn2)cc1-n1cc(-c2cncc(N3CCNCC3)c2)nn1 [I-77] — which class?
// result lo

// query Record Cc1ccc(C(=O)Nc2cc(C(C)(C)C)nn2C)cc1-n1cc(-c2cncc(N3CCOCC3)c2)nn1 [I-24] — which class?
// result mid

// query Record Cc1ccc(NC(=O)c2cc(C)n(C(C)(C)C)n2)cc1-n1cc(-c2cncc(N3CCN(C4CC4)CC3)c2)nn1 [II-34] — which class?
// result hi

---

target: B-Raf (V600E)-kinase (Homo sapiens (Human), UniProt P15056, V600E); assay: Kinase test B-Raf (V600E); settings: 1 h preincubation, 250 μM ATP
pIC50: −log10 of the molar value.
Quick rule for you: pIC50 at 8 or higher means true (1), lower means false (0).

[
  {
    "compound": "Cc1ccc(C(=O)Nc2cc(C(C)(C)C)on2)cc1-n1cc(-c2cncc(N3CCN(C(C)C)C(C)C3)c2)nn1 (stereo not drawn) [I-37]",
    "measured on": "B-Raf (V600E)-kinase (Homo sapiens (Human), UniProt P15056, V600E)",
    "assigned class": "false (0)"
  },
  {
    "compound": "COCCN(C)c1cncc(-c2cn(-c3cc(C(=O)Nc4cc(C(F)(F)F)ccn4)ccc3C)nn2)c1 [I-73]",
    "measured on": "B-Raf (V600E)-kinase (Homo sapiens (Human), UniProt P15056, V600E)",
    "assigned class": "false (0)"
  },
  {
    "compound": "Cc1ccc(C(=O)Nc2cc(C(F)(F)F)ccn2)cc1-n1cc(-c2cncc(N3CCCCC3)c2)nn1 [I-64]",
    "measured on": "B-Raf (V600E)-kinase (Homo sapiens (Human), UniProt P15056, V600E)",
    "assigned class": "false (0)"
  }
]

Now consider a different compound.
// query # check: pIC50 of COCCCN1CCN(c2cncc(-c3cn(-c4cc(C(=O)Nc5cc(C(C)(C)C)on5)ccc4C)nn3)c2)CC1 [I-40] is greater than or equal to 8
// result false (0)

---

molecular target: B-Raf (V600E)-kinase (Homo sapiens (Human), UniProt P15056, V600E); test: Kinase test B-Raf (V600E); details: 1 h preincubation, 250 μM ATP
Listing: pIC50 of selected molecules
Quick note: pIC50 means taking -log10 of the concentration in moles per liter.

Below, each entry is followed by its recorded pIC50 result.
[
  {
    "molecule": "COCCNc1cncc(-c2cn(-c3cc(C(=O)Nc4cc(C(C)(C)C)on4)ccc3C)nn2)c1 [I-36]",
    "measured on": "B-Raf (V600E)-kinase (Homo sapiens (Human), UniProt P15056, V600E)",
    "value reported": 7.80
  },
  {
    "molecule": "CCCN1CCN(c2cncc(-c3cn(-c4cc(NC(=O)c5ccc(C(C)(C)C)s5)ccc4C)nn3)c2)CC1 [II-25]",
    "measured on": "B-Raf (V600E)-kinase (Homo sapiens (Human), UniProt P15056, V600E)",
    "value reported": 8.05
  },
  {
    "molecule": "Cc1ccc(C(=O)Nc2cc(C(F)(F)F)ccn2)cc1-n1cc(-c2cncc(NC3CC3)c2)nn1 [I-66]",
    "measured on": "B-Raf (V600E)-kinase (Homo sapiens (Human), UniProt P15056, V600E)",
    "value reported": 7.36
  },
  {
    "molecule": "Cc1ccc(C(=O)Nc2cc(C(F)(F)F)ccn2)cc1-n1cc(-c2cncc(N3CCCOCC3)c2)nn1 [I-67]",
    "measured on": "B-Raf (V600E)-kinase (Homo sapiens (Human), UniProt P15056, V600E)",
    "value reported": 7.62
  },
  {
    "molecule": "Cc1ccc(C(=O)Nc2cc(C(F)(F)F)ccn2)cc1-n1cc(-c2cncc(N(C)C3CCN(C)CC3)c2)nn1 [I-74]",
    "measured on": "B-Raf (V600E)-kinase (Homo sapiens (Human), UniProt P15056, V600E)",
    "value reported": 7.92
  },
  {
    "molecule": "Cc1ccc(C(=O)Nc2cc(C(F)(F)F)ccn2)cc1-n1cc(-c2cncc(N3CCC3)c2)nn1 [I-57]",
    "measured on": "B-Raf (V600E)-kinase (Homo sapiens (Human), UniProt P15056, V600E)",
    "value reported": 7.80
  },
  {
    "molecule": "Cc1ccc(NC(=O)c2ccc(C(C)(C)C)s2)cc1-n1cc(-c2cncc(N3CCN(CC4CC4)CC3)c2)nn1 [II-31]",
    "measured on": "B-Raf (V600E)-kinase (Homo sapiens (Human), UniProt P15056, V600E)",
    "value reported": 8.10
  },
  {
    "molecule": "Cc1ccc(C(=O)Nc2cc(C(C)(C)C)on2)cc1-n1cc(-c2cncc(NCC(F)F)c2)nn1 [I-54]",
    "measured on": "B-Raf (V600E)-kinase (Homo sapiens (Human), UniProt P15056, V600E)",
    "value reported": 7.29
  },
  {
    "molecule": "Cc1ccc(C(=O)Nc2cc(C(C)(C)C)on2)cc1-n1cc(-c2cncc(N(C)C3CCOCC3)c2)nn1 [I-29]",
    "measured on": "B-Raf (V600E)-kinase (Homo sapiens (Human), UniProt P15056, V600E)",
    "value reported": 8.15
  },
  {
    "molecule": "Cc1ccc(C(=O)Nc2cc(C(F)(F)F)ccn2)cc1-n1cc(-c2cncc(N(C)CCN3CCCC3)c2)nn1 [I-65]",
    "measured on": "B-Raf (V600E)-kinase (Homo sapiens (Human), UniProt P15056, V600E)",
    "value reported": 8.05
  }
]

// query Can you look up the measured pIC50 of Cc1ccc(NC(=O)c2ccc(C(C)(C)C)s2)cc1-n1cc(-c2cncc(N3CCN(C(=O)OC(C)(C)C)CC3)c2)nn1 [II-23] for me?
// result 6.85

// query Can you look up the measured pIC50 of Cc1ccc(NC(=O)c2cc(CNCCN(C)C)c(C(C)(C)C)o2)cc1-n1cc(-c2cncc(N3CCOCC3)c2)nn1 [II-45] for me?
// result 8.00

// query Can you look up the measured pIC50 of Cc1ccc(C(=O)Nc2cc(C(C)(C)C)on2)cc1-n1cc(-c2cncc(N3CCN(CC4CCCO4)CC3)c2)nn1 (stereo not drawn) [I-8] for me?
// result 7.66

// query Can you look up the measured pIC50 of Cc1ccc(C(=O)Nc2cc(C(C)(C)C)on2)cc1-n1cc(-c2cncc(N(C)CC3CCCO3)c2)nn1 (stereo not drawn) [I-25] for me?
// result 7.35

// query Can you look up the measured pIC50 of Cc1ccc(C(=O)Nc2cc(C(F)(F)F)ccn2)cc1-n1cc(-c2cncc(N3CC[C@@H](N(C)C)C3)c2)nn1 [I-80] for me?
// result 7.82

---

Listing: pIC50 of selected compounds
biological target: B-Raf (V600E)-kinase (Homo sapiens (Human), UniProt P15056, V600E); experiment: Kinase test B-Raf (V600E); conditions: 1 h preincubation, 250 μM ATP
Quick note: pIC50 means taking -log10 of the concentration in moles per liter.

Below, each entry is followed by its recorded pIC50 result.
[
  {
    "compound": "Cc1ccc(C(=O)Nc2cc(C(C)(C)C)on2)cc1-n1cc(-c2cncc(N(C)CCN(C)C)c2)nn1",
    "pIC50": 8.15
  },
  {
    "compound": "Cc1ccc(NC(=O)c2cc(CNC3CCN(C)CC3)c(C(C)(C)C)o2)cc1-n1cc(-c2cncc(N3CCOCC3)c2)nn1",
    "pIC50": 7.85
  }
]

// query Can you look up the measured pIC50 of Cc1ccc(C(=O)Nc2cc(C(C)(C)C)on2)cc1-n1cc(-c2cncc(N3CCCC3)c2)nn1 for me?
// result 7.39

// query Can you look up the measured pIC50 of Cc1ccc(NC(=O)c2cc(C(C)(C)C)oc2C)cc1-n1cc(-c2cncc(N3CCOCC3)c2)nn1 for me?
// result 7.82

// query Can you look up the measured pIC50 of Cc1ccc(NC(=O)c2cc(C(C)(C)C)nn2C)cc1-n1cc(-c2cncc(N3CCN(C)CC3)c2)nn1 for me?
// result 8.10

// query Can you look up the measured pIC50 of Cc1ccc(C(=O)Nc2cc(C(F)(F)F)ccn2)cc1-n1cc(-c2cncc(NC3CCN(C)C3)c2)nn1 (centres unmarked) for me?
// result 8.22

// query Can you look up the measured pIC50 of Cc1ccc(C(=O)Nc2cc(C(F)(F)F)ccn2)cc1-n1cc(-c2cncc(N3CCN(C)CC3)c2)nn1 for me?
// result 8.15

// query Can you look up the measured pIC50 of Cc1ccc(C(=O)Nc2cc(C(C)(C)C)ccn2)cc1-n1cc(-c2cncc(N3CCN(C)CC3)c2)nn1 for me?
// result 7.74
